Target: BAF3 FL KIT EX11DEL/V654A (Homo sapiens, UniProt P10721, V654A, cells depend on it, form not given)
Construct: "BAF3 FL KIT EX11DEL/ V654A"
Sequence (P10721 with tags, fused parts or gaps DEL557-558/V654A, form open): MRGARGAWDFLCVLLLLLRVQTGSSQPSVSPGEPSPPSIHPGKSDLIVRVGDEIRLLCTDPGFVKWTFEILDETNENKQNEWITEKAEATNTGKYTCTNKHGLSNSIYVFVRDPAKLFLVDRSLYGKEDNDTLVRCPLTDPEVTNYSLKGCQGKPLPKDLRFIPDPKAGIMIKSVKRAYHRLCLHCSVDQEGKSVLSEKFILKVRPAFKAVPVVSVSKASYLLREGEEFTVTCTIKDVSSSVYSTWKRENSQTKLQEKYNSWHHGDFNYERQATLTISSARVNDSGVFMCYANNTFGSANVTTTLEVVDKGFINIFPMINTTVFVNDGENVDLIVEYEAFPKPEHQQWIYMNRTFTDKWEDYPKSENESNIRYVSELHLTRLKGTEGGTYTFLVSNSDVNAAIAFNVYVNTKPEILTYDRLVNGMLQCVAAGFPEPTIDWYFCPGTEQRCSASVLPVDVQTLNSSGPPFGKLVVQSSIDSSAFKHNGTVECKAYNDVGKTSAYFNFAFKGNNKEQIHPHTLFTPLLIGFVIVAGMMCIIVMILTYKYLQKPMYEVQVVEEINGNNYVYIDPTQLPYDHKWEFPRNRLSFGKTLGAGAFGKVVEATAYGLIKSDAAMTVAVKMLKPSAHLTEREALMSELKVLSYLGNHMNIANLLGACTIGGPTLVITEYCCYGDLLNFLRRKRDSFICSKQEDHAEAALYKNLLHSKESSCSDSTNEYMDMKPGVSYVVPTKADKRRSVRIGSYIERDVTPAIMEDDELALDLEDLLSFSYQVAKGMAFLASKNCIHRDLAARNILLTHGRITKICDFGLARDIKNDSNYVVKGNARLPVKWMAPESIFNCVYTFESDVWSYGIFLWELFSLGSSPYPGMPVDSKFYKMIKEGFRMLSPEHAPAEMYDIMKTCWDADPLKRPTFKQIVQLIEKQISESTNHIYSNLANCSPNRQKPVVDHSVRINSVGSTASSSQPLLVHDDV
Assay: c-Kit assay: Ba/F3 KIT mutant viability (Cell Titer-Glo, 72 hours)
Format: cell-based
Settings: viability after 72 hours
Protocol: KIT cDNAs were synthesized by GenScript and cloned into the pLVX-IRES-Puro vector (Clontech). Viral particles were produced by transfecting pLVX-IRES-puro vectors containing KIT mutant genes into HEK293 cells (Invitrogen) using the Trans-Lentiviral ORF Packaging Kit (Thermo Scientific). 48 hours post-transfection, virus-containing supernatants were harvested and incubated for another 48-72 hours with parental Ba/F3 cells (DSMZ) in the presence of 10 ng/mL L-3 (R&D Systems). […]
Measured Endpoint: GI50

# Chemical Structure, GI50
rows = [
    ("Cn1cc(-n2cnc3cc(C#Cc4cccc(C(=O)Nc5cc(C(F)(F)F)ccn5)c4)ccc32)cn1", "0.05 to 0.1 µM"),
    ("COCCn1cnc2cc(C#Cc3cc(C(=O)Nc4cc(C(F)(F)F)ccn4)ccc3C)ccc21", "0.05 to 0.1 µM"),
    ("Cc1ccc(NC(=O)c2cc(C(F)(F)F)ccn2)cc1C#Cc1ccc2c(c1)ncn2C", "0.05 to 0.1 µM"),
]

Please give GI50 for each item listed below.
1. Cc1ccc(C(=O)Nc2cc(C(F)(F)F)ccn2)cc1C#Cc1ccc2c(c1)ncn2CCN1CCOCC1
2. Cn1cc(-n2cnc3cc(C#Cc4cc(NC(=O)c5cc(C(F)(F)F)ccn5)ccc4F)ccc32)cn1
3. Cc1ccc(C(=O)Nc2cc(C(F)(F)F)ccn2)cc1C#Cc1ccc2c(c1)ncn2C1CCN(C)CC1
4. Cc1ccc(NC(=O)c2cc(C(F)(F)F)ccn2)cc1C#Cc1ccc2c(c1)ncn2-c1cnn(CCO)c1

Completion:
0.1 to 10 µM
0.05 to 0.1 µM
0.1 to 10 µM
0.01 to 0.05 µM

---

Biological target: BAF3 FL KIT EX11DEL (Homo sapiens, UniProt P10721, cells depend on it, form not given)
Construct: "BAF3 FL KIT EX11DEL"
Sequence (P10721 with tags, fused parts or gaps DEL557-558): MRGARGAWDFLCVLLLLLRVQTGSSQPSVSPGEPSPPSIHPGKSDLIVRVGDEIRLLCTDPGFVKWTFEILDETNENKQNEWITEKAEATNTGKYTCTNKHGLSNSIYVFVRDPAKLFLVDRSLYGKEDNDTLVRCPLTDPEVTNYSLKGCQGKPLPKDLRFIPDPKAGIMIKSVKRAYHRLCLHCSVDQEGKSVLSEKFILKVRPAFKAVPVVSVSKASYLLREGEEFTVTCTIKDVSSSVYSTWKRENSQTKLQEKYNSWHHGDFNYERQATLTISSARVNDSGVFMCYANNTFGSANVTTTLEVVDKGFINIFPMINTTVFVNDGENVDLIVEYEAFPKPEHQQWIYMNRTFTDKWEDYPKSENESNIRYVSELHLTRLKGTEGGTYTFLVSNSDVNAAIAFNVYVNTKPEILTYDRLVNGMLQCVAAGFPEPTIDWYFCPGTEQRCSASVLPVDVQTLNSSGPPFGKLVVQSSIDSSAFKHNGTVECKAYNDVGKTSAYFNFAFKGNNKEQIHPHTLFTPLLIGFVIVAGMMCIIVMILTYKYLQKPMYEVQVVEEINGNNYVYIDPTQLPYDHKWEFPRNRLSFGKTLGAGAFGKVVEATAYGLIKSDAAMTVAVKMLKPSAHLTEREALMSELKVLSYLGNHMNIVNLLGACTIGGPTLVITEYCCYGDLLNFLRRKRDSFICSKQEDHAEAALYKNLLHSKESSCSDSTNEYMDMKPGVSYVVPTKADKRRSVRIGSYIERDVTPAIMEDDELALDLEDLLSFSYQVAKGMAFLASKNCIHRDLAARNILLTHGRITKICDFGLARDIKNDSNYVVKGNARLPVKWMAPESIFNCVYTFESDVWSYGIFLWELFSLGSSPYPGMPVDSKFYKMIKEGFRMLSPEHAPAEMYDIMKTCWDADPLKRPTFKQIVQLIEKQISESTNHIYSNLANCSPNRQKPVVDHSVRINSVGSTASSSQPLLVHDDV
Assay: c-Kit assay: Ba/F3 KIT mutant viability (Cell Titer-Glo, 72 hours)
Type: cell-based
Conditions: viability after 72 hours
Measured Endpoint: GI50

Worked examples follow.
# Chemical Structure, Measurement Target, GI50
data = [
    ("Cc1ccc(NC(=O)c2ccc(CN3CCN(C)CC3)c(C(F)(F)F)c2)cc1C#Cc1ccc2c(c1)ncn2C", "BAF3 FL KIT EX11DEL (Homo sapiens, UniProt P10721, cells depend on it, form not given)", "100 to 10000 nM"),
    ("CCn1cnc2cc(C#Cc3cc(C(=O)Nc4cc(C(F)(F)F)ccn4)ccc3C)ccc21", "BAF3 FL KIT EX11DEL (Homo sapiens, UniProt P10721, cells depend on it, form not given)", "10 to 50 nM"),
    ("Cc1ccc(C(=O)Nc2cc(C(F)(F)F)ccn2)cc1C#Cc1ccc2c(c1)ncn2C1CCN(C)CC1", "BAF3 FL KIT EX11DEL (Homo sapiens, UniProt P10721, cells depend on it, form not given)", "10 to 50 nM"),
    ("Cc1ccc(C(=O)Nc2ccc(CN3CCCC3)c(C(F)(F)F)c2)cc1C#Cc1ccc2c(c1)ncn2C", "BAF3 FL KIT EX11DEL (Homo sapiens, UniProt P10721, cells depend on it, form not given)", "10 to 50 nM"),
    ("Cc1ccc(C(=O)Nc2cc(C(F)(F)F)ccn2)cc1C#Cc1ccc2c(c1)ncn2-c1cn(C)cn1", "BAF3 FL KIT EX11DEL (Homo sapiens, UniProt P10721, cells depend on it, form not given)", "< 10 nM"),
    ("Cc1ccc(NC(=O)c2cc(C(F)(F)F)ccn2)cc1C#Cc1ccc2c(c1)ncn2C", "BAF3 FL KIT EX11DEL (Homo sapiens, UniProt P10721, cells depend on it, form not given)", "10 to 50 nM"),
]

Continue with the compound presented below.
Prompt: If you can, please state the reported GI50 value of CNC(=O)Cn1cnc2cc(C#Cc3cc(C(=O)Nc4cc(C(F)(F)F)ccn4)ccc3C)ccc21 .
Completion: < 10 nM
